Tested on: Plasmodium falciparum
protocol text: Antimicrobial activity against Plasmodium falciparum 3D7 by intraerythrocytic assay
Format: functional, organism-based

compound	tested system	IC50 / µM
CC(C)=CCC/C(C)=C/COCC(=O)NC1C2CC3CC(C2)CC1C3 (stereo not given)	Plasmodium falciparum	11
CC(C)=CCC/C(C)=C/CNCCOC(C)(C)C	Plasmodium falciparum	13
CC(C)=CCC/C(C)=C/CNCCOC1C2CC3CC(C2)CC1C3 (stereo not given)	Plasmodium falciparum	2.4
CC(C)=CCC/C(C)=C/C[N+](C)(C)CCOC1C2CC3CC(C2)CC1C3 (stereo not given)	Plasmodium falciparum	0.16
CC(C)=CCC/C(C)=C/CNC(=O)COC1C2CC3CC(C2)CC1C3 (stereo not given)	Plasmodium falciparum	18
CC(C)=CCC/C(C)=C/CNCCNC1C2CC3CC(C2)CC1C3 (stereo not given)	Plasmodium falciparum	3
CC(C)=CCC/C(C)=C/COCCOC1C2CC3CC(C2)CC1C3 (stereo not given)	Plasmodium falciparum	24
CC(C)=CCC/C(C)=C/CNCCOc1ccccc1	Plasmodium falciparum	51
CC(C)=CCC/C(C)=C/CNCCCOC1C2CC3CC(C2)CC1C3 (stereo not given)	Plasmodium falciparum	2.4
CC(C)=CCC/C(C)=C/COCCNC1C2CC3CC(C2)CC1C3 (stereo not given)	Plasmodium falciparum	2.8

----------
Recorded measurements of pIC50, one per entry
protocol text: Inhibition of Mycobacterium smegmatis MenA
Design: species or system Mycolicibacterium smegmatis
pIC50: −log10 of the molar value.

compound	pIC50
CC(C)=CCC/C(C)=C/CNCCO[C@@H]1C[C@@H]2CC[C@@]1(C)C2(C)C	5.10
CC(C)=CCC/C(C)=C/CNCCNC1C2CC3CC(C2)CC1C3 (stereo not drawn)	5.32
CC(C)=CCC/C(C)=C/CNCCOC1C2CC3CC(C2)CC1C3 (stereo not drawn)	5.40

----------
protocol text: Therapeutic index, ratio of IC50 for human MCF7 cells to MIC for Mycobacterium tuberculosis ATCC 27294
Format: cell-based
condition details: MCF7 cells versus Mycobacterium tuberculosis ATCC 27294, read-out: TI

compound	selectivity ratio
CC(C)=CCC/C(C)=C/CNCCOC1C2CC3CC(C2)CC1C3 (configuration not stated)	900
CC(C)=CCC/C(C)=C/CNCCNC1C2CC3CC(C2)CC1C3 (configuration not stated)	120
